protocolNotes: Acute toxicity test in ICR mice
Type: in vivo
assaySetup: mouse, in vivo, iv
valueType: LD50 at 336 h

What LD50 at 336 h value was documented for this compound, `CCO/N=C(\C(=O)N[C@@H]1C(=O)N2C(C(=O)[O-])=C(C[n+]3cc4sccn4c3CNC=O)CS[C@H]12)c1nsc(N)n1` ?
> 2000 mg/kg

----------
Test system: S. Aureus 209P JC-1
protocolNotes: Antibacterial activity test, MIC by two-fold dilution method
Format: cell-based
assaySetup: Staphylococcus aureus, 209P, read-out: Minimum Inhibition Concentration
Field: MIC. Provide a value for each of the compounds that follow.
Give bare numbers, in µg/mL.

Below, each entry is followed by its recorded MIC result.
compound	unitOfMeasure	MIC
Nc1nc(/C(=N/OCCF)C(=O)N[C@@H]2C(=O)N3C(C(=O)[O-])=C(C[n+]4cc5sccn5c4)CS[C@H]23)ns1	µg/mL	0.39
NC(=O)c1csc2c[n+](CC3=C(C(=O)[O-])N4C(=O)[C@@H](NC(=O)/C(=N\OCCF)c5nsc(N)n5)[C@H]4SC3)cn12	µg/mL	0.39
C[C@H](O/N=C(\C(=O)N[C@@H]1C(=O)N2C(C(=O)[O-])=C(C[n+]3cc4sccn4c3)CS[C@H]12)c1csc(N)n1)C(=O)O	µg/mL	6.25
CC(C)(O/N=C(\C(=O)N[C@@H]1C(=O)N2C(C(=O)[O-])=C(C[n+]3ccccc3)CS[C@H]12)c1csc(N)n1)C(=O)O [CAZ, Ceftazidime, reference compound]	µg/mL	6.25
CO/N=C(\C(=O)N[C@@H]1C(=O)N2C(C(=O)[O-])=C(C[n+]3cc4sccn4c3)CS[C@H]12)c1nsc(N)n1	µg/mL	0.39

Please examine the following record next.
What MIC value was documented for this compound, `Nc1nc(/C(=N/OC2CCCC2)C(=O)N[C@@H]2C(=O)N3C(C(=O)[O-])=C(C[n+]4cc5sccn5c4)CS[C@H]23)ns1` ?
0.39
